- system_under_test: human tissue nonspecific alkaline phosphatase (h-TNAP) (Homo sapiens, UniProt P05186)
- Sequence (P05186 18-524): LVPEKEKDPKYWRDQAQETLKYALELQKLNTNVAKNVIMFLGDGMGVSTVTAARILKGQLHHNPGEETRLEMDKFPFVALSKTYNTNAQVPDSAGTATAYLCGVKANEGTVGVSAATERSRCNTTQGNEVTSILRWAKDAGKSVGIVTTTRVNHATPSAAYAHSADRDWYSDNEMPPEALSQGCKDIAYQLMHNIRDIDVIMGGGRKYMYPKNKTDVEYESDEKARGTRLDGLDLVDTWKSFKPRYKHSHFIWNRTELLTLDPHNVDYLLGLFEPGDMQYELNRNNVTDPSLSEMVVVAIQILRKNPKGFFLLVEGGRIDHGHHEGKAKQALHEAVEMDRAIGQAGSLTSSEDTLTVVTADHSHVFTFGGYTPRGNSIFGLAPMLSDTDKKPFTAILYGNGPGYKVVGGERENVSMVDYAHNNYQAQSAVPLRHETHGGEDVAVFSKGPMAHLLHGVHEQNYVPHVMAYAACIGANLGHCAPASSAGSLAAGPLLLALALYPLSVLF
- assay: Alkaline phosphatase inhibition assay (p-NPP substrate)
- Type: biochemical
- setup_conditions: percent inhibition of h-TNAP; compounds tested at 1 mM; Table 1 and text; read-out: Inhibitory Potential
reported_property: inhibition at 1000 µM (%)

molecule: CC(C)c1ccc(-c2c(C#N)c(N)nc(NCCCn3ccnc3)c2C#N)cc1 [Compound 4k]
inhibition at 1000 µM / %: 36.5
--
molecule: CSc1ccc(-c2c(C#N)c(N)nc(NCCc3ccc(S(N)(=O)=O)cc3)c2C#N)cc1 [Compound 4h]
inhibition at 1000 µM / %: 37.6
--
molecule: CC(C)c1ccc(C2C(C#N)=C(N)N(Cc3ccccc3)C(N)=C2C#N)cc1 [Compound 4b]
inhibition at 1000 µM / %: 28.3
--
molecule: N#CC1=C(N)N(Cc2ccccc2)C(N)=C(C#N)C1c1cccc2ccccc12 [Compound 4c]
inhibition at 1000 µM / %: 26.2

(A) CSc1ccc(C2C(C#N)=C(N)N(Cc3ccccc3)C(N)=C2C#N)cc1 [Compound 4a]
(B) CC(C)c1ccc(-c2c(C#N)c(N)nc(NCCc3ccc(S(N)(=O)=O)cc3)c2C#N)cc1 [Compound 4i]
Request: Between these two entries, A and B , state which has the higher inhibition at 1000 µM. Response format: the label of the selected entry.
Response: B
(B: 31.7%, A: 20.9%)

* * *

Each entry below carries its recorded inhibition at 100 µM.
- Test system: Breast Cancer (MCF-7) Cells
- assay: MTT cell viability assay, MCF-7
- Format: cell-based
- setup_conditions: Homo sapiens, MCF7, 100 µM, 24 h
State just the number; it will be interpreted in %.

molecule: COc1c(O)cccc1C1C(C#N)=C(N)N(Cc2ccccc2)C(N)=C1C#N [Compound 4f]
system_under_test: Breast Cancer (MCF-7) Cells
inhibition at 100 µM (%): 61.7
--
molecule: COc1ccc(C2C(C#N)=C(N)N(Cc3ccccc3)C(N)=C2C#N)c(OC)c1OC [Compound 4e]
system_under_test: Breast Cancer (MCF-7) Cells
inhibition at 100 µM (%): 5.73
--
molecule: N#CC1=C(N)N(Cc2ccccc2)C(N)=C(C#N)C1c1cccc2ccccc12 [Compound 4c]
system_under_test: Breast Cancer (MCF-7) Cells
inhibition at 100 µM (%): 23.1
--
molecule: COc1cccc2c1C(=O)c1c(O)c3c(c(O)c1C2=O)C[C@@](O)(C(=O)CO)C[C@@H]3O[C@H]1C[C@H](N)[C@H](O)[C@H](C)O1 [Doxorubicin, reference compound]
system_under_test: Breast Cancer (MCF-7) Cells
inhibition at 100 µM (%): 98.9
--
molecule: CC(C)c1ccc(C2C(C#N)=C(N)N(Cc3ccccc3)C(N)=C2C#N)cc1 [Compound 4b]
system_under_test: Breast Cancer (MCF-7) Cells
inhibition at 100 µM (%): 41.8
--
molecule: CCOc1ccc(-c2c(C#N)c(N)nc(NCCc3ccc(S(N)(=O)=O)cc3)c2C#N)cc1 [Compound 4g]
system_under_test: Breast Cancer (MCF-7) Cells
inhibition at 100 µM (%): 53.3
--
molecule: CSc1ccc(C2C(C#N)=C(N)N(Cc3ccccc3)C(N)=C2C#N)cc1 [Compound 4a]
system_under_test: Breast Cancer (MCF-7) Cells
inhibition at 100 µM (%): 37.9
--
molecule: CSc1ccc(-c2c(C#N)c(N)nc(NCCc3ccc(S(N)(=O)=O)cc3)c2C#N)cc1 [Compound 4h]
system_under_test: Breast Cancer (MCF-7) Cells
inhibition at 100 µM (%): 57.2
--
molecule: CC(C)c1ccc(-c2c(C#N)c(N)nc(NCCc3ccc(S(N)(=O)=O)cc3)c2C#N)cc1 [Compound 4i]
system_under_test: Breast Cancer (MCF-7) Cells
inhibition at 100 µM (%): 34.6
--
molecule: CC(C)c1ccc(-c2c(C#N)c(N)nc(NCCCn3ccnc3)c2C#N)cc1 [Compound 4k]
system_under_test: Breast Cancer (MCF-7) Cells
inhibition at 100 µM (%): 40.1

Summary for this molecule, N#CC1=C(N)N(Cc2ccccc2)C(N)=C(C#N)C1c1ccc2ccccc2c1 [Compound 4d] : inhibition at 100 µM is 85.8

Summary for this molecule, CCOc1ccc(-c2c(C#N)c(N)nc(NCCCn3ccnc3)c2C#N)cc1 [Compound 4j] : inhibition at 100 µM is 72.4

The values you see were collected from paper PMC9570995.
